Test system: K-562 leukemia
Assay: NCI tumour cell line growth inhibition, 384-well format; in the data active = GI50 below about 0.43 µM; inactive = the rest
Your answer must be one of the following: active, inactive

[in] Given CCOC(=O)c1ccc2[nH]c(Cc3[nH]c4ccc(C(=O)OCC)cc4c3C)c(C)c2c1 , state the outcome it received in this test.
[out] active

[in] What did this assay record as the result for Cc1c(N(C(=O)c2cc(-c3cc(Cl)ccc3C(=O)N3Cc4ccccc4C[C@H]3CN3CCOCC3)n(C)c2C)c2ccc(O)cc2)cc(C#N)n1C ?
[out] inactive

[in] State the result this test recorded for CCC[C@H](Nc1nc(-c2ccc(NC(=O)NCC)c(OC)c2)ncc1C)c1cccnc1 .
[out] active

[in] Query: recorded result category for Cc1c(N)nc([C@H](CC(N)=O)NC[C@H](N)C(N)=O)nc1C(=O)N[C@H](C(=O)N[C@H](C)[C@@H](O)[C@H](C)C(=O)N[C@H](C(=O)NCCc1nc(-c2nc(C(=O)NCCC[S+](C)C)cs2)cs1)[C@@H](C)O)C(OC1OC(CO)C(O)C(O)C1OC1OC(CO)C(O)C(OC(N)=O)C1O)c1cnc[nH]1 (some centres undefined) in this test
[out] inactive

Just for reference, PubChem BioAssay (NCI) is where these values come from.
